- ASSAYED_TARGET: HLA-A*30:01
- TEST_METHOD_NOTES: IEDB peptide-MHC binding, purified MHC/competitive/radioactivity; filed as Kd, often an IC50 or EC50 that approximates it; bounds were set here for any values at or beyond the usual limits of such assays
- CONDITION: source organism: Mammarenavirus lassaense
MEASURED_METRIC: Kd

1. FYSQESPQSY: ≥ 49.5 µM

---

- ASSAYED_TARGET: HLA-A*03:01
- TEST_METHOD_NOTES: IEDB peptide-MHC binding, purified MHC/direct/fluorescence; filed as Kd, often an IC50 or EC50 that approximates it; bounds were set here for any values at or beyond the usual limits of such assays
- CONDITION: source organism: Entamoeba histolytica HM-1:IMSS
pKd: −log10 of the molar value.
MEASURED_METRIC: pKd

1) FMFGPTIYY: 7.37

Measured values drawn from the Immune Epitope Database (IEDB) for this set.
